metric.name: logP

[[record]]
mol = "COP(=S)(OC)Oc1cc(C)c([N+](=O)[O-])c(C)c1"
metric_name = "logP"
measured_value = 3.89

[[record]]
mol = "COP(=S)(OC)Oc1ccc([N+](=O)[O-])c(Cl)c1"
metric_name = "logP"
measured_value = 3.45

[[record]]
mol = "COP(=O)(OC)Oc1ccc([N+](=O)[O-])c(Cl)c1"
metric_name = "logP"
measured_value = 1.83

[[record]]
mol = "COP(=O)(OC)Oc1cc(C)c([N+](=O)[O-])c(C)c1"
metric_name = "logP"
measured_value = 2.26

[[record]]
mol = "CCc1cc(OP(=S)(OC)OC)ccc1[N+](=O)[O-]"
metric_name = "logP"
measured_value = 3.74

[[record]]
mol = "COP(=S)(OC)Oc1ccc([N+](=O)[O-])c(C)c1"
metric_name = "logP"
measured_value = 3.3


====

# method.summary: method code SF, from DOI: 10.1007/bf00302523
Binary classification by logP, with 3 as an inclusive lower bound for y; all other cases are n.

[[record]]
mol = "COP(=S)(OC)Oc1ccc([N+](=O)[O-])c(C(C)C)c1"
qualitative_label = "y"

[[record]]
mol = "COP(=O)(OC)Oc1ccc([N+](=O)[O-])c(C(C)C)c1"
qualitative_label = "n"

[[record]]
mol = "CCc1cc(OP(=O)(OC)OC)ccc1[N+](=O)[O-]"
qualitative_label = "n"

[[record]]
mol = "COP(=S)(OC)Oc1ccc([N+](=O)[O-])cc1Cl"
qualitative_label = "y"

[[record]]
mol = "COP(=O)(OC)Oc1ccc([N+](=O)[O-])c(C)c1"
qualitative_label = "n"

[[record]]
mol = "COP(=O)(OC)Oc1ccc([N+](=O)[O-])cc1Cl"
qualitative_label = "n"

